Origin of measurements: the supplement of paper PMC9262897

test system: E. coli TESEC Mtb Alr; experiment: growth (OD600 after 10 h); higher = more growth (less inhibition); settings: arabinose 1000 nM; compound 0.1 mM; raw OD600 reference: median of DMSO wells 0.294, cell-free background 0.041
Structures can show the parent of a compound that is named as a salt.
Use 0.2 as the dividing line for growth, with the line itself on the condition met side and lower values as condition not met.

Compound: CN(C)CCOC(c1ccc(Cl)cc1)c1ccccn1 (stereo not drawn) [Carbinoxamine maleate salt]
Category label: condition met
--
Compound: COc1ccc2c(c1)c(CC(=O)O)c(C)n2C(=O)c1ccc(Cl)cc1
Category label: condition not met
--
Compound: N=C(N=C(N)N)N1CCOCC1 [Moroxidine hydrochloride]
Category label: condition met
--
Compound: O=C1NCN(c2ccccc2)C12CCN(CCCC(c1ccc(F)cc1)c1ccc(F)cc1)CC2
Category label: condition not met
--
Compound: CN1CCN(c2c(F)cc3c(=O)c(C(=O)O)cn4c3c2SCC4)CC1
Category label: condition not met

Task: Evaluate CC1CNc2c(cccc2S(=O)(=O)N[C@@H](CCCNC(=N)N)C(=O)N2CC[C@@H](C)C[C@@H]2C(=O)O)C1 (stereo partly drawn) : growth at minimum 0.2?
Result: condition met

Task: Evaluate CO[C@@]1(NC(=O)CSCC#N)C(=O)N2C(C(=O)O)=C(CSc3nnnn3C)CS[C@@H]21 [Cefmetazole sodium salt] : growth at minimum 0.2?
Result: condition not met

----------
Give growth for every item shown.
test system: E. coli TESEC Mtb DapB; experiment: growth (OD600 after 10 h); higher = more growth (less inhibition); conditions: arabinose induction (level): High; compound 0.1 mM; raw OD600 reference: median of DMSO wells […], cell-free background 0.041
Structures can show the parent of a compound that is named as a salt.
Numbers only.

// worked examples, growth included
Compound: CN(CCOc1ccc(NS(C)(=O)=O)cc1)CCc1ccc(NS(C)(=O)=O)cc1 [Dofetilide]
Tested on: E. coli TESEC Mtb DapB
growth: 0.229
//
Compound: CN1CCN(C2=Nc3cc(Cl)ccc3Nc3ccccc32)CC1
Tested on: E. coli TESEC Mtb DapB
growth: 0.17
//
Compound: COc1ccc2[nH]cc(CCNC(C)=O)c2c1
Tested on: E. coli TESEC Mtb DapB
growth: 0.202
//
Compound: c1ccc([C@H]2CN3CCSC3=N2)cc1 [Levamisole hydrochloride]
Tested on: E. coli TESEC Mtb DapB
growth: 0.182
//
Compound: CN1CCC(OC(c2ccccc2)c2ccccc2)CC1 [Diphenylpyraline hydrochloride]
Tested on: E. coli TESEC Mtb DapB
growth: 0.211

Provide reported growth for each item, in the same order as listed.
1. CN(CCCCCCCCCCN(C)C(=O)Oc1cccc([N+](C)(C)C)c1)C(=O)Oc1cccc([N+](C)(C)C)c1 [Demecarium bromide]
2. CCCCC(C)(O)C/C=C/[C@H]1[C@H](O)CC(=O)[C@@H]1CCCCCCC(=O)OC (mixture of isomers)
3. C[C@H](CCC(=O)O)[C@H]1CC[C@H]2[C@@H]3CC[C@@H]4C[C@H](O)CC[C@]4(C)[C@H]3CC[C@]12C

Result:
1. 0.0492
2. 0.332
3. 0.214

----------
Give growth for every item shown.
system: E. coli TESEC Alr+ wild-type control; experiment: growth (OD600 after 10 h); higher = more growth (less inhibition); conditions: compound 0.1 mM; raw OD600 reference: median of DMSO wells 0.49, cell-free background 0.052
Structures can show the parent of a compound that is named as a salt.

Molecule: COc1cc(NC(C)CCCN)c2ncccc2c1 (stereo not drawn) [Primaquine diphosphate]
growth: 0.267
--
Molecule: COc1ccc2c(c1)c(CC(=O)O)c(C)n2C(=O)c1ccc(Cl)cc1
growth: 0.392
--
Molecule: CCCCNc1c(C(=O)OCC)c(C)nc2c1cnn2CC [Tracazolate hydrochloride]
growth: 0.335
--
Molecule: OCCN(CCO)c1nc(N2CCCCC2)c2nc(N(CCO)CCO)nc(N3CCCCC3)c2n1
growth: 0.0816

Provide reported growth for each item, in the same order as listed.
1. NC(=O)c1cc[n+](CC2=C(C(=O)[O-])N3C(=O)[C@@H](NC(=O)[C@@H](c4ccccc4)S(=O)(=O)O)[C@H]3SC2)cc1 [Cefsulodin sodium salt]
2. Nc1ccn([C@@H]2O[C@H](CO)[C@@H](O)[C@@H]2O)c(=O)n1

Result:
1. 0.636
2. 0.552

Provide reported growth for each item, in the same order as listed.
1. C[C@@H](c1ncncc1F)[C@](O)(Cn1cncn1)c1ccc(F)cc1F
2. CCOC(=O)C1=C[C@]2(CC)CCCN3CCc4c(n1c1ccccc41)[C@@H]32

Result:
1. 0.557
2. 0.557
